Study target: thrombin (alpha-thrombin) (Homo sapiens, UniProt P00734;P00734 P00734:315-363,P00734:364-622)
Protocol: filter; 10 nM thrombin
Define the label as 1.0 when binding signal is strictly less than 20 % bound and as 0.0 in all remaining cases.

TCCCGATCGAGAGTGGTATTTGTTTTCTGGGTGGCTGAGGATCGATC (ssDNA) [AMX(398)_F5] :: 0.0
TCCCATTGATCCGGGGTGGTTTTCTGGTTTGGGTGGCTGAGGATCGATC (ssDNA) [AMX(399)_B10] :: 0.0
TCCCAGAGAGCCGGGGTATAATTGTGGTGTGGGTGGCTGAGGATCGATC (ssDNA) [AMX(399)_D11] :: 0.0
TCCCGATTTGAGTTTAGTAGGGTGGGTAGGATGGTGGCTGAGGATCGATC (ssDNA) [AMX(398)_D1] :: 0.0
TCCCATCGAGCCGGGTATGTTTCGTTGGGCTGGGTGGCTGAGGATCGATC (ssDNA) [AMX(399)_E5] :: 1.0

These data points were gathered from patent US20090221680.
